B1: CPEB3 Ribozyme (parent)
chain: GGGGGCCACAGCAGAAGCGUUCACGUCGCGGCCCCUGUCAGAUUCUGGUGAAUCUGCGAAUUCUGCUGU

# Variants of: B1
# Experiment description: self-cleavage, relative activity (ratio to wild type); higher = more cleavage; co-transcriptional
The following variants are listed with their measured self-cleavage values.

{"Mut": "C22A U44G", "Value type": "self-cleavage", "Result": 0.237}
{"Mut": "G3A A51U", "Value type": "self-cleavage", "Result": 0.651}
{"Mut": "A13C A60C", "Value type": "self-cleavage", "Result": 0.301}
{"Mut": "U49A U67A", "Value type": "self-cleavage", "Result": 1.05}
{"Mut": "U49G U67G", "Value type": "self-cleavage", "Result": 1.05}
{"Mut": "A40C G41C", "Value type": "self-cleavage", "Result": 0.324}

Ask: # return recorded self-cleavage for input U53C A59C
Reply: 0.525

Ask: Report measured self-cleavage; entry is C45U G56C
Reply: 0.694

Ask: Output measured self-cleavage for this item: U20C U43C
Reply: 0.212

Ask: Consider the variant C6U C9A and give its recorded self-cleavage.
Reply: 1.03

Ask: Give the reported self-cleavage for this variant. C6G G37A
Reply: 0.0792

Ask: For C33A C66U , write its self-cleavage.
Reply: 0.901

Ask: Supply reported self-cleavage belonging to this variant: C12G C33A
Reply: 0.68

Ask: Using the record for G2U A16U , state its measured self-cleavage.
Reply: 0.0525

FYI, the data here is from the RNAGym collection of RNA variant scans (doi:10.7554/elife.80360).
